# Test system: SF-268 CNS
# procedure-details: NCI tumour cell line growth inhibition, 48 h
TGI by entry:

>  <compound>
O=C(Nc1ccccc1Cl)c1cccc(NC2=C(Cl)C(=O)N(Cc3ccccc3)C2=O)c1

>  <value-modifier>
=

>  <TGI (µM)>
58.6

$$$$
>  <compound>
CN1Cc2c(nc(-c3ccc(Br)cc3)c[n+]2[O-])N(C)C1

>  <value-modifier>
>

>  <TGI (µM)>
100

$$$$
>  <compound>
CC(=O)OC(C)C(OC(C)=O)C(OC(C)=O)C(/C=C/C1CC=CC(=O)O1)OC(C)=O (stereo unspecified)

>  <value-modifier>
=

>  <TGI (µM)>
75.7

$$$$
>  <compound>
C#CCSc1nc(N)c2ncn(C3OC(COP(=O)(O)O)C(O)C3O)c2n1 (stereo unspecified)

>  <value-modifier>
>

>  <TGI (µM)>
239

$$$$
>  <compound>
COc1cc(OC)c2c(O)c(S(=O)(=O)c3ccc(C)cc3)c(=O)oc2c1

>  <value-modifier>
>

>  <TGI (µM)>
100

$$$$
>  <compound>
O=C(O)c1cc(Cl)cc2c1NC1(N2)C(=O)Nc2ccccc21 (stereo unspecified)

>  <value-modifier>
>

>  <TGI (µM)>
100

$$$$
>  <compound>
Cc1ccc(N=C2SC(c3ccc(C)cc3)(c3ccc(C)cc3)c3ccccc32)cc1

>  <value-modifier>
>

>  <TGI (µM)>
100

$$$$
>  <compound>
O=C(O)COc1ccc(C(=O)/C(SS/C(C(=O)c2ccc(OCC(=O)O)c(Cl)c2Cl)=C2\C=C(c3ccc(Br)cc3)SS2)=C2/C=C(c3ccc(Br)cc3)SS2)c(Cl)c1Cl

>  <value-modifier>
=

>  <TGI (µM)>
34

$$$$
>  <compound>
Nc1n[nH]c(N)c1N=Nc1ccc(O)cc1

>  <value-modifier>
=

>  <TGI (µM)>
82.6

$$$$
>  <compound>
CC/C=C\C/C=C/C=C1/C(=O)C=C[C@@H]1C/C=C\CCCC(=O)OC

>  <value-modifier>
=

>  <TGI (µM)>
24.7

$$$$
>  <compound>
CN(C)C(=O)C(F)(F)C(c1ccc(Br)cc1)C1C(=O)N(C)C(=O)N(C)C1=O (stereo unspecified)

>  <value-modifier>
>

>  <TGI (µM)>
100

$$$$
>  <compound>
C=C(Br)CNCC(=C)Br

>  <value-modifier>
>

>  <TGI (µM)>
100

$$$$
>  <compound>
CC1C2CC(C/C2=N/O)C1(C)C (stereo unspecified)

>  <value-modifier>
>

>  <TGI (µM)>
100

$$$$
>  <compound>
COC/N=C(/N)NC#N

>  <value-modifier>
>

>  <TGI (µM)>
100

$$$$
>  <compound>
S=C(N/N=C\c1ccccn1)N(Cc1ccccn1)Cc1ccccn1

>  <value-modifier>
=

>  <TGI (µM)>
30.9

$$$$
>  <compound>
O=S(=O)(NC1=NCCN1C(=S)SN1CCn2c1nsc2=S)c1cccc(OC(F)(F)F)c1

>  <value-modifier>
=

>  <TGI (µM)>
34.4

$$$$
